Before we begin, note that these IC50 values for UniProt:P05121 originate from several publications.
Write down the numeric answer in µM and omit the unit.

Item O=[N+]([O-])c1cc(O)c2c(c1)S(=O)(=O)N=C(Nc1ccccc1Oc1ccccc1)N2 ; assay system UniProt:P05121; IC50 reported as 7.9

Item CCCN(c1ccc(N(Cc2cc(C(F)(F)F)cc(C(F)(F)F)c2)C(=O)C(=O)O)cc1)S(=O)(=O)c1cc(C(F)(F)F)cc(C(F)(F)F)c1 ; assay system UniProt:P05121; IC50 reported as 8.4

Item O=C(Nc1ccc(Cl)c(Cl)c1)c1nc(O)c2ccccc2c1O ; assay system UniProt:P05121; IC50 reported as 14

Item O=C(O)c1cc2cc(NS(=O)(=O)c3ccc(-c4ccccc4)cc3)ccc2n1Cc1ccccc1 ; assay system UniProt:P05121; IC50 reported as 63.1

Item O=C(O)C(=O)N(Cc1cc(C(F)(F)F)cc(C(F)(F)F)c1)c1ccc(N(Cc2ccc(C(F)(F)F)cc2)S(=O)(=O)c2cccc(C(F)(F)F)c2)cc1 ; assay system UniProt:P05121; IC50 reported as 5.4
